B1: tRNA (parent)
chain: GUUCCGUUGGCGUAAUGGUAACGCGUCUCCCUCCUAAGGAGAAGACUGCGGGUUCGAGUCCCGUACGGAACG

# Variants of: B1
# PROTOCOL_SUMMARY: yeast fitness, log relative to wild type (ln ratio); higher = fitter; tRNA-Arg(CCU), competitive growth, 37 C, 1 M NaCl
Record form. Attribute: yeast fitness (ln). Fill in for each entry.
One number for each entry.

Solved cases (5 shown):
G1A U2G G6U C27U A43C C46U C66U A70G C71U	-0.466
G1A U2C G6U A43C C66A A69G A70G C71U	-0.0437
U2G G6U C27U C66U A70U C71U	-0.343
C66A A69G A70G	-0.0347
G1A U2G G6A C27U A43C C46U C66U A69G A70U C71U	-0.384

List reported yeast fitness (ln) for each of these variants:
1. G1A U2C G6U C27U A70G C71U
2. G1A G6U C27U C66U A70U
3. U2C G6U C27U A43C C46U C66U A69G A70G
4. G1A U2C C27U A43C C46U A69G C71U
5. U2G G6A C27U C66U A70G C71U
6. U2C G6U C66A A69G A70U C71U

Marked response:
-0.212
-0.274
-0.256
-0.167
-0.203
-0.487

Hello, the source for this data is the RNAGym collection of RNA variant scans (doi:10.1038/s41586-018-0170-7), in case you need it.
